- Assay Explanation: FRG1 expression reporter modulators in myotubes – cell-based, C2C12 myotubes, firefly/Renilla luciferase, luminescence, FRG1 inhibition for FSHD, primary screen (AID 1084)
- Setup Conditions: FRG1 promoter luciferase, higher = more signal, called active from +8 up or from −8 down
Quantity Kind: z-score
// return just the number, without any unit appended

The following compounds have reported results that may help.
O=C(O)[C@@]1(Cc2ccccc2)COC(c2ccc(OCCCO)cc2)=N1	0.809
COCCOC(=O)N1C(=O)[C@@]2(c3cc(C#Cc4ccc(OC)cc4)ccc31)[C@H](C(=O)N1CCc3cc(OC)c(OC)cc3C1)[C@H]1C(=O)O[C@H](c3ccccc3)[C@H](c3ccccc3)N1[C@@H]2c1ccc(O)cc1	0.707
CN1C(=O)C2C=CC(C(O)c3ccc(F)cc3)N(N3CCCCC3)C2C1=O (configuration not stated)	0.532
COCCOC(=O)N1C(=O)[C@@]2(c3cc(C#CCC(C(=O)OC)C(=O)OC)ccc31)[C@H](c1ccc(OCCO)cc1)N1[C@H](c3ccccc3)[C@H](c3ccccc3)OC(=O)[C@H]1[C@@H]2C(N)=O	-0.441
COc1cc2c(cc1OC)CN(C(=O)[C@@H]1[C@H]3C(=O)O[C@H](c4ccccc4)[C@H](c4ccccc4)N3[C@H](c3ccc(OCCO)cc3)[C@@]13C(=O)Nc1ccc(C#CCCO)cc13)CC2	0.838
CCCC=C(CCC)[C@@H](NS(=O)(=O)CC)c1ccccc1	1.33

In: Item under review: "[N-]=[N+]=NCc1ccccc1[C@H]1OC(c2ccc(OCCCO)cc2)=N[C@@]1(Cc1ccccc1N=[N+]=[N-])C(=O)NCCN1CCOCC1" . Reported z-score?
Out: 0.342

* * *

- Target Of Assay: Neurogenic locus notch homolog protein 2 (Homo sapiens) (UniProt Q04721)
- Sequence (Q04721 whole entry, looked up): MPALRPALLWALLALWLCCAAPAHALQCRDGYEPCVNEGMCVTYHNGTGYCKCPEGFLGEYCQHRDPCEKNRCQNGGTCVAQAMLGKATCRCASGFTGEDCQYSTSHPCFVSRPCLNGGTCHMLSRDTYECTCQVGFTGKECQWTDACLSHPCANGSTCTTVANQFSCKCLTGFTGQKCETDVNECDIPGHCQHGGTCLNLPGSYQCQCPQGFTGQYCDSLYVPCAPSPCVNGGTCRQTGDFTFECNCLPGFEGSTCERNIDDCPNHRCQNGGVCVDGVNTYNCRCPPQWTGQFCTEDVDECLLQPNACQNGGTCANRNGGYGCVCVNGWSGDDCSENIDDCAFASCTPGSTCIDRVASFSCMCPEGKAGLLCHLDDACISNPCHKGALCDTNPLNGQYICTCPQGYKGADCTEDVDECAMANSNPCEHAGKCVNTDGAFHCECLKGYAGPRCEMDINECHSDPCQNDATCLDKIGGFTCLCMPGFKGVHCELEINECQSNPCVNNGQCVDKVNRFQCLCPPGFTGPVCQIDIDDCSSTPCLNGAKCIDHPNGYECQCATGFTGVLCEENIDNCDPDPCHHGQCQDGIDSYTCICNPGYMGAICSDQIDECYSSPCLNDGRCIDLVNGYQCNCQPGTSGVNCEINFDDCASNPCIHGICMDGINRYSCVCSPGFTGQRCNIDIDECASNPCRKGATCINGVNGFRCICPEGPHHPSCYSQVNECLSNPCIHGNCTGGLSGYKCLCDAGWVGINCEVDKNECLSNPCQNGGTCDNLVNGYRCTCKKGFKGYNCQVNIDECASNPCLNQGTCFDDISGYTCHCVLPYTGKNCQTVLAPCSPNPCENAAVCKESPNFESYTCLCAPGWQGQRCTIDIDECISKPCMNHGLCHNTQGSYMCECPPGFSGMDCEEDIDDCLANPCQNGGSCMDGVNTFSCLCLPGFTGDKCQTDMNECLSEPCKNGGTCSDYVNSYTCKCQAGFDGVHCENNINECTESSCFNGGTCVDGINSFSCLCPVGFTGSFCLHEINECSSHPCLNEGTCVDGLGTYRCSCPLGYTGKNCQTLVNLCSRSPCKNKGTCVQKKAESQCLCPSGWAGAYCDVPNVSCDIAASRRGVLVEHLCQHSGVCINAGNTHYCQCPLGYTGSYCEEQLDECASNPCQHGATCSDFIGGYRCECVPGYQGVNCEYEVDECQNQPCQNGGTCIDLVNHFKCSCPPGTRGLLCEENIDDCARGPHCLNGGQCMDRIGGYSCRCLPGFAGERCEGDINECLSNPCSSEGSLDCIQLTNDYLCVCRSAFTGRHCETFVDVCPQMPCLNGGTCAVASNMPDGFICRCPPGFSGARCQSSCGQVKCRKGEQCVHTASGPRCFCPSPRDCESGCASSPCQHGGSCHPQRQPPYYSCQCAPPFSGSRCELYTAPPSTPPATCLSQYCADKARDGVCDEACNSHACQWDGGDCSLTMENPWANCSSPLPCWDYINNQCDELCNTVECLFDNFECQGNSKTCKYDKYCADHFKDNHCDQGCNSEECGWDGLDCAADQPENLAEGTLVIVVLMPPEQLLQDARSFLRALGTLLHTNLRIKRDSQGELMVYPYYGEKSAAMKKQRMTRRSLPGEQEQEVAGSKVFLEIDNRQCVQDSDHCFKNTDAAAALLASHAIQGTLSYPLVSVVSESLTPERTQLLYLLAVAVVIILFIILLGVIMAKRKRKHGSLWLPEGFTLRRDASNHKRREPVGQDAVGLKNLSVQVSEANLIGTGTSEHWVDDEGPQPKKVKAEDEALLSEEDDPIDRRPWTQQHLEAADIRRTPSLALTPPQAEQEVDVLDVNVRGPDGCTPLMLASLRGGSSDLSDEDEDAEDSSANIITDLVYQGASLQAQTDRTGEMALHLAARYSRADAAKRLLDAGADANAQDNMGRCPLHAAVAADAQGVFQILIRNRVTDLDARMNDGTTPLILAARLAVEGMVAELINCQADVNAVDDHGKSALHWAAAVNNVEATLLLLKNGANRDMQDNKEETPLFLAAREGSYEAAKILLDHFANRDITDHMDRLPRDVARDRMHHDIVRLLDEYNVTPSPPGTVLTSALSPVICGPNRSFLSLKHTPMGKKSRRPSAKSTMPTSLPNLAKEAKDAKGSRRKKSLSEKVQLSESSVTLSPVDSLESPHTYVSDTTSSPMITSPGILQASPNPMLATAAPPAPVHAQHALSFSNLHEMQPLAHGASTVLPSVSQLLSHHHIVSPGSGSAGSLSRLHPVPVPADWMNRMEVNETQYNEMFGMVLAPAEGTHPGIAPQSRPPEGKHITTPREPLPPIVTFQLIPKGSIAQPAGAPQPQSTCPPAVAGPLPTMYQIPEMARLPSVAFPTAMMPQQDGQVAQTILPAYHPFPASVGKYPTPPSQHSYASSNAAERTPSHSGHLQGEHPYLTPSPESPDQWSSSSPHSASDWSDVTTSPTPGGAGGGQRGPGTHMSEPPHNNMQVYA
- Assay Explanation: small molecules binding Notch2 protein – biochemical, small-molecule microarray, 635 nm fluorescence, stem cell growth factors, primary screen (AID 1073)
- Setup Conditions: higher = more signal
Quantity Kind: composite z-score
// return just the number, without any unit appended

O=C1CSC(c2cccc([N+](=O)[O-])c2)N1c1ccccc1 (configuration not stated)	0.839
Cc1ccc(F)cc1S(=O)(=O)N[C@@H]1CCN(C(=O)c2ccc(OC(C)C)cc2)C1	0.957
O=C1NC(=O)C2C1C=CC(C(O)c1ccc(-c3ccccc3)s1)N2Nc1ccccn1 (configuration not stated)	1.31
CC[C@@H]1[C@@H]2C3C(=O)N(CC)C(=O)C3CC(=O)[C@@H]2[C@H](c2ccc(C)cc2)N1S(=O)(=O)c1ccc(C)cc1 (some centres not stated)	1.56
NC(=O)NCC#Cc1ccc2c(c1)[C@]1(C(=O)N2)[C@H](c2ccc(OCCO)cc2)N2[C@H](c3ccccc3)[C@H](c3ccccc3)OC(=O)[C@H]2[C@@H]1C(=O)N1CCCCCCC1	1.53

In: Item under review: "COc1cccc(C)c1NC(=O)O[C@H]1[C@H](OC(=O)Nc2ccccc2)[C@H](OC(=O)Nc2ccccc2)[C@@H](OC)O[C@@H]1CO" . Reported composite z-score?
Out: 1.16

In: Item: "CCOC(=O)C1=CC[C@@H](c2ccc(N(CC)CC)cc2)N(S(=O)(=O)c2ccc(C)cc2)[C@H]1c1ccc([N+](=O)[O-])cc1"
Out: -0.398

* * *

- Target Of Assay: Follistatin-related protein 3 (Homo sapiens) (UniProt O95633)
- Sequence (O95633 whole entry, looked up): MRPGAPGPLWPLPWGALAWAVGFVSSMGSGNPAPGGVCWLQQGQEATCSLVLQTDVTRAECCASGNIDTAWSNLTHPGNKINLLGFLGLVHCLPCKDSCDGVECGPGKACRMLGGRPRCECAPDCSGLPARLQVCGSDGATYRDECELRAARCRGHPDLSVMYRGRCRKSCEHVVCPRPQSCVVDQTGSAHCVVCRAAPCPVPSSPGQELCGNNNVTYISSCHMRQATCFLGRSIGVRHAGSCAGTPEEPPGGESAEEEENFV
- Assay Explanation: compounds binding follistatin-related protein 3 – biochemical, small-molecule microarray, 635 nm fluorescence, primary screen (AID 1105);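 also: score merges emission near 667 nm and signal to noise per printed spot across three slides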
- Setup Conditions: FSTL3 binding, higher = more signal
Quantity Kind: composite z-score
// return just the number, without any unit appended

The following molecules have reported results that may help.
CN(C)C(=O)[C@@]1(CCS(=O)(=O)c2ccccc2)N=C(c2ccc(OCCCO)cc2)O[C@H]1c1ccccc1CN=[N+]=[N-]	0.922
CCN(CC)c1ccc(N2CC=CC34O[C@@H]5/C=C\CCCOC(=O)C5[C@H]3C(=O)N(CCCCCO)[C@@H]4C2=O)cc1 (stereo not given in full)	-1.42
CC(C)C[C@@H]1NC(=O)[C@@H]2C[C@H](C(=O)NCCCC[N+](C)(C)C)[C@H](c3cccc(OCCO)c3)N2C1=O	1.31
CN(C)C(=O)[C@]1(Cc2ccccc2N=[N+]=[N-])N=C(c2ccc(OCCCO)cc2)O[C@@H]1c1ccccc1CN=[N+]=[N-]	1.3

In: Item under review: "CN(C)CCCCCCNC(=O)[C@@H]1C[C@@H]2C(=O)NCC(=O)N2[C@@H]1c1ccc(O)cc1" . Reported composite z-score?
Out: 1.46

In: Item: Cc1cc(C)c(C(O)C2C=CC3C(=O)N(c4ccccc4)C(=O)C3N2Nc2ccccc2)c(C)c1 (stereo not given)
Out: 0.939

In: Item: "COCCOC(=O)N1C(=O)[C@@]2(c3cc(C#CCC(C(=O)OC)C(=O)OC)ccc31)[C@H](C(=O)N1CCCCCCC1)[C@H]1C(=O)O[C@H](c3ccccc3)[C@H](c3ccccc3)N1[C@@H]2c1ccc(O)cc1"
Out: 1.45

In: Item: CC(C)c1ccc(NN2C(C(O)c3cccs3)C=CC3C(=O)N(c4ccccc4)C(=O)C32)cc1 (stereo not given)
Out: 1.21

In: Item: "COC(=O)[C@@]1(Cc2ccccc2)[C@H]2c3cc(C(=O)N(C)C)n(Cc4ccccn4)c3C[C@H]2CN1C(=O)c1ccccc1"
Out: 0.155

In: Item: "C=CCNC(=O)[C@@H]1[C@H]2C(=O)O[C@H](c3ccccc3)[C@H](c3ccccc3)N2[C@H](c2ccc(O)cc2)[C@@]12C(=O)Nc1ccc(C#CCCO)cc12"
Out: -0.459

* * *

z-score values for the compounds below.
- Assay Explanation: blockers of DNA damage checkpoint Chk1 activation – imaging, HeLa, hydroxyurea, phospho-Chk1 antibody, percent positive cells, primary screen (AID 1186)
- Setup Conditions: hydroxyurea-induced phospho-Chk1 immunofluorescence imaging, higher = more signal
// return just the number, without any unit appended

The following compounds have reported results that may help.
Cc1ccc(S[C@]2(C(=O)O)CC(=O)N(C3CCCCC3)[C@@H]2c2ccc(CO)cc2)cc1	-0.643
CC1CC/C=C\[C@H]2OC34C=CCN(Cc5ccccc5)C(=O)[C@H]3N(CCO)C(=O)[C@@H]4C2C(=O)O1 (some centres undefined)	-0.455
C[N+](C)(C)CCCCNC(=O)[C@H]1C[C@H]2C(=O)NCC(=O)N2[C@H]1c1ccc(O)cc1	-1.02

In: Item under review: CC(C)C[C@H]1NC(=O)[C@H](C)NC(=O)[C@@]23C(=O)N[C@@H](Cc4ccccc4)C2[C@H](C)[C@@]2(C)O[C@H]2C3/C=C/C/C=C\CNC1=O (some centres undefined) . Reported z-score?
Out: -0.454

In: Item: "COCCOC(=O)N1C(=O)[C@@]2(c3ccccc31)[C@H](c1ccccc1OCCO)N1[C@H](c3ccccc3)[C@H](c3ccccc3)OC(=O)[C@H]1[C@@H]2C(=O)N1CCc2cc(OC)c(OC)cc2C1"
Out: -0.453

In: Item: "COc1ccc(C(=O)Nc2ccc3c(c2)[C@]2(O[C@@H](CCO)[C@H]([Si](C)(C)c4ccc(OC)cc4)[C@H]2C)C(=O)N3Cc2ccccc2)cc1"
Out: -0.583

In: Item: "COC(=O)[C@@]1(Cc2ccc(OC)cc2)[C@H]2c3cc(C(=O)N4CCCC4)n(CCF)c3C[C@H]2CN1C(=O)c1ccccc1"
Out: 0.128

In: Item: "[N-]=[N+]=NCc1ccccc1C[C@@]1(C(=O)NCCN2CCOCC2)N=C(c2ccc(OCCCO)cc2)O[C@@H]1c1ccccc1CN=[N+]=[N-]"
Out: 0.243

In: Item: "C[C@@H]1ON(c2ccccc2)[C@H](c2ccccc2)[C@H]1C(=O)N1C(=O)OC[C@H]1Cc1ccccc1"
Out: -0.673

In: Item: "CCOC(=O)C1=CC[C@@H](c2ccccc2)N(S(=O)(=O)c2ccc(C)cc2)[C@H]1C=C(C)C"
Out: 0.213

In: Item: "NC(=O)NCC#Cc1ccc2c(c1)[C@]1(C(=O)N2)[C@H](c2ccc(O)cc2)N2[C@H](c3ccccc3)[C@H](c3ccccc3)OC(=O)[C@H]2[C@@H]1C(=O)NC[C@H](O)c1ccccc1"
Out: -0.186

In: Item: "O=C1O[C@H](c2ccccc2)[C@H](c2ccccc2)N2[C@H]1[C@@H](C(=O)NC[C@H](O)c1ccccc1)[C@]1(C(=O)Nc3ccccc31)[C@H]2c1ccccc1OCCO"
Out: -0.517

In: Item: "COC(=O)[C@@]1(Cc2ccc(F)cc2)[C@H]2c3cc(C(=O)N(C)C)n(Cc4ccc(C)c(F)c4F)c3C[C@H]2CN1C(=O)c1ccccc1"
Out: -0.014

In: Item: "COCCOC(=O)N1C(=O)[C@@]2(c3cc(C#Cc4ccc(OC)cc4)ccc31)[C@H](C(=O)N1CCc3cc(OC)c(OC)cc3C1)[C@H]1C(=O)O[C@H](c3ccccc3)[C@H](c3ccccc3)N1[C@@H]2c1ccc(OCCO)cc1"
Out: 0.0413
